assayedSystem: SARS-CoV-2病毒N蛋白(全长) (SARS-CoV-2, UniProt P0DTC9 1-419)
Give EC50 for every item shown.
Reply numerically in ng/mL, unit not repeated.

Query :: Form field: reported EC50 of nCoV416 (antibody, V domains shown) VH: QVQLVQSGAVLKRPGASVKLSCKASGYIFTSYHIHWVRQAPGQGLEWLGTINPRGDVTAYAQKFQGRVSLTRDTSTTTVYMELSSLRSEDTAIYYCAREHGDVSSSVFDHWGQGTLVSVSS VL: QLVLTQSPSASASLGASIKLTCTLSSGHSNYAIAWHKQQPEKGLRYLMKVNSDGSHNKGDGIPDRFSGSSSGPERYLIISSLQSDDEADYHCQTWASGIQVFGGGTKLTVL
Result :: 3.3

Query :: Form field: reported EC50 of nCoV396 (antibody, V domains shown) VH: QVQLVESGGGVVQPGRSLRLSCAASGFTFSSYIMHWVRQAPGKGLEWVAVISYDGSNEAYADSVKGRFTISRDNSKNTLYLQMSSLRAEDTGVYYCARETGDYSSSWYDSWGRGTLVTVSS VL: QLVLTQSPSASASLGASVKLTCTLSSGHSNYAIAWHQQQPEKGPRYLMKVNSDGSHTKGDGIPDRFSGSSSGAERYLTISSLQSEDEADYYCQTWGTGIQVFGGGTKLTVL
Result :: 3.2
